Assay: chemical genetic growth profiling, strain panel (AID 1159580);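 further: tested at 20 µM; growth read once vehicle control cultures reached saturation at 30 °C; 1 = growth at the plate median or of vehicle wells; lower values mean less growth of the strain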
Settings: S. cerevisiae deletion strains, growth OD, locus YHR129C, strain ARP1, stronger effect = lower value
About 2,000 (36%) of roughly 5,500 compounds were called active. Another 18% or so got no clear call; they are omitted. This is one part of the list.
quantity_name: normalized growth

Worked cases, answers included:
- molecule: "COc1ccc2c(=O)ccoc2c1"
  experimental_result: "1.01 (inactive)"
- molecule: "CN(C)CCc1c[nH]c2ccc(CS(=O)(=O)N3CCCC3)cc12"
  experimental_result: "0.981 (inactive)"

Kindly review the next molecule as well.
For CC[C@H]1CN2CCc3cc(OC)c(OC)cc3C2C[C@@H]1CC1NCCc2cc(OC)c(OC)cc21 (stereo not given in full) the molecule record lists normalized growth as 1.01 (inactive)
